# System: CP217
# assayInfo: qHTS profiling for inhibitors of Plasmodium falciparum proliferation (AID 504749); further: nearly all actives have a fitted effect of over 60% in size
# assayConditions: P. falciparum in erythrocytes, SYBR Green DNA, 72 h; series mostly up to 28.7 µM
Inconclusive results are not listed. The source made the active and inactive calls. The call rests on the fitted dose curve; in most records, active means well fitted inhibition curve with a large enough effect; inconclusive means small, poorly fitted or top-dose-only effect; inactive means flat fitted curve, though single readings scatter.
Log the outcome using a class from active, inactive

molecule: O=c1cc(CO)occ1O
answerLabel: inactive

molecule: CCOc1ccc2ccccc2c1C(=O)N[C@@H]1C(=O)N2[C@@H]1SC(C)(C)[C@@H]2C(=O)O
answerLabel: inactive

molecule: CCCCCCCCCCCCCCCC(=O)NCCO
answerLabel: inactive

molecule: COc1cc2[nH]c(=O)[nH]c(=O)c2cc1OC
answerLabel: inactive

molecule: O=C1NS(=O)(=O)c2ccccc21
answerLabel: inactive

input: How was `CCOC(=O)[C@H](CCc1ccccc1)N[C@@H](C)C(=O)N1C(=O)N(C)C[C@H]1C(=O)O` classified in this test?
output: inactive

input: How was `CCCc1c(OCCCCc2nn[nH]n2)ccc(C(C)=O)c1O` classified in this test?
output: inactive

input: How was `O=C(O)COc1nn(Cc2ccccc2)c2ccccc12` classified in this test?
output: inactive

input: How was `Nc1ncnc2c1ncn2[C@@H]1O[C@H](CO)[C@@H](O)[C@H]1O` classified in this test?
output: inactive

input: How was `NC(=O)NC(=O)Cc1ccccc1` classified in this test?
output: inactive

input: How was `[O-][n+]1cccc(CO)c1` classified in this test?
output: inactive

input: How was `Oc1cccc(O)c1` classified in this test?
output: inactive

input: How was `CC(=O)Oc1ccc(C2(c3ccc(OC(C)=O)cc3)C(=O)Nc3ccccc32)cc1` classified in this test?
output: inactive

input: How was `COC(=O)C1=C(C)NC(C)=C(C(=O)OC)C1c1ccccc1[N+](=O)[O-]` classified in this test?
output: inactive

input: How was `C[C@@H]1CN(c2c(F)c(F)c3c(=O)c(C(=O)O)cn(C4CC4)c3c2F)C[C@H](C)N1` classified in this test?
output: inactive

input: How was `CCCOC(=O)c1ccccc1` classified in this test?
output: inactive

input: How was `CCC(=O)c1ccc(O)cc1` classified in this test?
output: inactive

input: How was `O=c1[nH]c(=O)c2[nH]c(=O)[nH]c2[nH]1` classified in this test?
output: inactive

input: How was `CC12CCC(CC1)C(C)(C)O2` classified in this test?
output: inactive

input: How was CC(C)(C)C(=O)C(Oc1ccc(Cl)cc1)n1ccnc1 (stereo unspecified) classified in this test?
output: active

input: How was `CC(=O)CCC(=O)O` classified in this test?
output: inactive

----------
# System: CP201
# assayInfo: qHTS profiling for inhibitors of Plasmodium falciparum proliferation (AID 504749); further: nearly all actives have a fitted effect of over 60% in size
# assayConditions: P. falciparum in erythrocytes, SYBR Green DNA, 72 h; series mostly up to 28.7 µM
Results filed as inconclusive are left out. Active and inactive are the calls of the source. The call rests on the fitted dose curve; in most records, active means well fitted inhibition curve with a large enough effect; inconclusive means small, poorly fitted or top-dose-only effect; inactive means flat fitted curve, though single readings scatter.
endpointLabel: outcome

Below, 4 compounds whose answers are already recorded.
compound: CN1CCCCC1CCN1c2ccccc2Sc2ccc(S(C)=O)cc21 (centres undefined)
endpointLabel: outcome
measured: inactive
//
compound: O=C(O)CC(O)C(=O)O (centres undefined)
endpointLabel: outcome
measured: inactive
//
compound: O=C(O)c1ccccn1
endpointLabel: outcome
measured: inactive
//
compound: Nc1nc2c(ncn2CCC(CO)CO)c(=O)[nH]1
endpointLabel: outcome
measured: inactive

Now for a further compound.
input: Can you look up the measured outcome of `CCN(CC)CCSC(=O)C(c1ccccc1)c1ccccc1` for me?
output: inactive
